B1: tRNA (parent)
chain: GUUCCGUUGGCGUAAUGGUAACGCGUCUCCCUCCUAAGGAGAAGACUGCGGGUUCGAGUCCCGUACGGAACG

variants of: B1; experiment: yeast fitness relative to wild type (ratio to wild type); higher = fitter; tRNA-Arg(CCU), competitive growth, 37 C, YPD
Fewer inactive variants are shown than the library holds.
Experimental readout: yeast fitness

                            mutation_name  value_modifier  experimental_value
 0                         C24G C31G A43U               =               0.596
 1           C5G C31A A37C G48A G58C G68C               ≤                 0.5
 2                    A21U A36G C49A G63A               ≤                 0.5
 3                    A20G C27U C49U A57G               ≤                 0.5
 4  C4G C5G G10A G18A G44C C61A C62U C66U               ≤                 0.5
 5                     G6A U26A C30G U59C               ≤                 0.5
 6                    U26G U35C G63A A70G               ≤                 0.5
 7                              G44C C61A               =               0.583
 8                    C34G A43C C49U G56A               ≤                 0.5
 9                                   G56U               =                0.85
10                              G52C G63C               =               0.577
11     C11U C24G C27G A36U G38C C60G C66A               ≤                 0.5
12                              U28C C29A               =               0.703
13                              G12A C61U               =               0.924
14                               U8C C11G               =               0.686
15                              C46A G52A               =               0.816
16                               C5A U64A               =               0.766
17                               C4G C31A               =               0.817
18                              U35C A42U               =               0.819
19                    U13G C24A C46G G52A               ≤                 0.5
20                              G18A C46G               =               0.749
21               A14U C46A G51C A57U U64G               =               0.584
22                U8G A21C A43U U59A G63A               ≤                 0.5
23                     U2G G12C C49U C66U               ≤                 0.5
24                    A14G A21C U35A A43G               ≤                 0.5
25                         A15G A21U G63A               =               0.627
26                          C5U A20C G67A               =                1.01
27                           C4U U8C A69U               =               0.875
28                         A43G A45U G63A               =               0.613
29                              U16C U35C               =               0.609
30                              C22U A37C               =               0.593
31                         C31U U35C U53C               ≤                 0.5
32           G9A U28C G38A G44A G51C G58C               ≤                 0.5
33                         G18A C31U G41A               =               0.647
34                              C49U A65C               =               0.935
35                          U8A G25C A37C               ≤                 0.5
36                         G12A U35A A45C               =               0.528
37                    A14U A57C C60G C61A               =               0.601
38                         G10A U19A C46A               =               0.542
39                U3A C11G A14C C62U G67C               ≤                 0.5
40                     U7A G10C C31G G67U               ≤                 0.5
41                              A43U C49A               =               0.756
42                C4U C29A G52C C55A U59G               =               0.554
43                    C24G C33G U53C C55U               =               0.567
44     A14C U19G C31G C33U A42G G48A G52A               ≤                 0.5
45                         C24G C49U C55G               ≤                 0.5

meta.source: the RNAGym collection of RNA variant scans (doi:10.1126/science.aae0568)
